- PROTOCOL CONDITIONS: in methyl acetate, 318.15 K
REPORTED PROPERTY: solubility (mole fraction)
Keep the answer to the number alone.

Look up solubility (mole fraction): "O=C(O)COc1ccc(Cl)cc1Cl" 0.144

---

- PROTOCOL CONDITIONS: in n-pentanol, 318.15 K
REPORTED PROPERTY: solubility (mole fraction)
// no unit string in output, number only

Please look up its solubility (mole fraction): "O=C(O)COc1ccc(Cl)cc1Cl" 0.243

---

- PROTOCOL CONDITIONS: in isopropanol, 283.15 K
REPORTED PROPERTY: solubility (mole fraction)

Would you mind telling me what solubility (mole fraction) value was observed for "O=C(O)COc1ccc(Cl)cc1Cl" ? 0.0525

Source: BigSolDB 2.1
